Assay: Solubility screening of the compound of Formula IV (freebase) in solvent mixtures
Type: physicochemical
Conditions: organic solvent or mixture; p-dioxane, approximately 25° C.
readout_label: solubility

Q: Complete the entry with solubility for CC(C)(O)COc1cc(-c2ccc(N3CCC(O)(Cc4ccccn4)CC3)nc2)c2c(C#N)cnn2c1
Result: > 62 mg/mL

====

Assay: Solvent solubility screen of the compound of Formula II
Type: physicochemical
Conditions: 40 °C, organic solvent or mixture, thermodynamic from solid; 1,4-Dioxane; (P) partial solubility at 100 volumes; read-out: Approximate solubility
readout_label: solubility

Q: Name the recorded solubility of the compound listed here: COc1ccc(CN2C3CC2CN(c2ccc(-c4cc(OCC(C)(C)O)cn5ncc(C#N)c45)cn2)C3)cn1 [compound of Formula II]
Result: < 5000 µg/mL

====

Test: Solubility of the free base of the compound of Formula I in solvents and mixed solvent systems
Assay type: physicochemical
Details: 25 °C, organic solvent or mixture, thermodynamic from solid; 40% DCM in EtOH, room temperature; read-out: Solubility
readout_label: solubility (µg/mL)
Give bare numbers, in µg/mL.

Q: State its solubility: COc1ccc(CN2CCN(c3ccc(-c4cc(-c5cnn(C)c5)cn5ncc(C#N)c45)cn3)CC2)cn1 [freebase of the compound of Formula I]
Result: 2530

====

Test: Solvent solubility screen of the compound of Formula II
Type: physicochemical
Conditions: Ethanol, 40 °C, organic solvent or mixture, thermodynamic from solid; read-out: Approximate solubility
readout_label: solubility

Q: Give the reported solubility for this compound. COc1ccc(CN2C3CC2CN(c2ccc(-c4cc(OCC(C)(C)O)cn5ncc(C#N)c45)cn2)C3)cn1
Result: < 5000 µg/mL

====

Assay: Solubility screening of the compound of Formula IV (freebase) in solvent mixtures
Assay type: physicochemical
Details: organic solvent or mixture; Ethyl acetate, approximately 25° C.
readout_label: solubility (mg/mL)
Numbers only, in mg/mL.

Q: Identify solubility associated with the compound CC(C)(O)COc1cc(-c2ccc(N3CCC(O)(Cc4ccccn4)CC3)nc2)c2c(C#N)cnn2c1 [compound of Formula IV]
Result: 21

====

Assay: Solubility of the free base of the compound of Formula I in solvents and mixed solvent systems
Format: physicochemical
Details: organic solvent or mixture, thermodynamic from solid; 0% DCM in EtOH, room temperature; read-out: Solubility
readout_label: solubility (µg/mL)
One number for each entry, in µg/mL.

Q: Return reported solubility. Input compound: COc1ccc(CN2CCN(c3ccc(-c4cc(-c5cnn(C)c5)cn5ncc(C#N)c45)cn3)CC2)cn1 [freebase of the compound of Formula I]
Result: 50

====

Test: Solubility screening of the compound of Formula IV (freebase) in solvent mixtures
Format: physicochemical
Conditions: organic solvent or mixture; MEK, approximately 25° C.
readout_label: solubility (mg/mL)
Give bare numbers, in mg/mL.

Q: Identify measured solubility associated with CC(C)(O)COc1cc(-c2ccc(N3CCC(O)(Cc4ccccn4)CC3)nc2)c2c(C#N)cnn2c1 [compound of Formula IV]
Result: 30.7

====

Test: Solvent solubility screen of the compound of Formula II
Type: physicochemical
Conditions: 40 °C, organic solvent or mixture, thermodynamic from solid; Cyclohexanone; (P) partial solubility at 100 volumes; read-out: Approximate solubility
readout_label: solubility

Q: Please report solubility for the following compound: COc1ccc(CN2C3CC2CN(c2ccc(-c4cc(OCC(C)(C)O)cn5ncc(C#N)c45)cn2)C3)cn1 [compound of Formula II]
Result: < 5000 µg/mL

====

Test: Solubility of the free base of the compound of Formula I in solvents and mixed solvent systems
Assay type: physicochemical
Details: 70% THF in H2O, 25 °C, aqueous with cosolvent or surfactant or cyclodextrin, thermodynamic from solid; title: THF/H2O at room temperature; head: % THF in EtOH = 70; read-out: Solubility
readout_label: solubility (µg/mL)
Answers are plain numbers, in µg/mL.

Q: Give the reported value of solubility for this record: COc1ccc(CN2CCN(c3ccc(-c4cc(-c5cnn(C)c5)cn5ncc(C#N)c45)cn3)CC2)cn1 [freebase of the compound of Formula I]
Result: 6170

====

Experiment: Solubility screening of the compound of Formula IV (freebase) in solvent mixtures
Format: physicochemical
Conditions: aqueous with cosolvent or surfactant or cyclodextrin; Acetone:water (1:1), approximately 25° C.
readout_label: solubility

Q: Provide solubility value for the following molecule: CC(C)(O)COc1cc(-c2ccc(N3CCC(O)(Cc4ccccn4)CC3)nc2)c2c(C#N)cnn2c1
Result: 45.8 mg/mL

====

Test: Solubility screening of the compound of Formula IV (freebase) in solvent mixtures
Format: physicochemical
Conditions: organic solvent or mixture; Butanol, approximately 25° C.
readout_label: solubility (mg/mL)
Numbers only, in mg/mL.

Q: Tell me its solubility given CC(C)(O)COc1cc(-c2ccc(N3CCC(O)(Cc4ccccn4)CC3)nc2)c2c(C#N)cnn2c1 as the entry.
Result: 16.6

====

Test: Solvent solubility screen of the compound of Formula II
Type: physicochemical
Conditions: 40 °C, organic solvent or mixture, thermodynamic from solid; CHCl3; (P) partial solubility at 100 volumes; read-out: Approximate solubility
readout_label: solubility

Q: Tell me its solubility given COc1ccc(CN2C3CC2CN(c2ccc(-c4cc(OCC(C)(C)O)cn5ncc(C#N)c45)cn2)C3)cn1 as the entry.
Result: < 5000 µg/mL

====

Assay: Solubility of the free base of the compound of Formula I in solvents and mixed solvent systems
Assay type: physicochemical
Conditions: 10% THF in H2O, 25 °C, aqueous with cosolvent or surfactant or cyclodextrin, thermodynamic from solid; title: THF/H2O at room temperature; head: % THF in EtOH = 10; read-out: Solubility
readout_label: solubility

Q: Answer with the recorded solubility for the molecule listed here: COc1ccc(CN2CCN(c3ccc(-c4cc(-c5cnn(C)c5)cn5ncc(C#N)c45)cn3)CC2)cn1 [freebase of the compound of Formula I]
Result: 150 µg/mL

====

Experiment: Solvent solubility screen of the compound of Formula II
Assay type: physicochemical
Settings: Cyclohexane, 40 °C, organic solvent or mixture, thermodynamic from solid; read-out: Approximate solubility
readout_label: solubility

Q: Give the reported solubility for this molecule. COc1ccc(CN2C3CC2CN(c2ccc(-c4cc(OCC(C)(C)O)cn5ncc(C#N)c45)cn2)C3)cn1 [compound of Formula II]
Result: < 5000 µg/mL

====

Assay: Solubility of the free base of the compound of Formula I in solvents and mixed solvent systems
Assay type: physicochemical
Conditions: 30% THF in H2O, 25 °C, aqueous with cosolvent or surfactant or cyclodextrin, thermodynamic from solid; title: THF/H2O at room temperature; head: % THF in EtOH = 30; read-out: Solubility
readout_label: solubility
Please make sure the unit comes right after the number.

Q: Determine its reported solubility: COc1ccc(CN2CCN(c3ccc(-c4cc(-c5cnn(C)c5)cn5ncc(C#N)c45)cn3)CC2)cn1 [freebase of the compound of Formula I]
Result: 350 µg/mL

====

Experiment: Solubility screening of the compound of Formula IV (freebase) in solvent mixtures
Format: physicochemical
Conditions: Water, approximately 25° C.
readout_label: solubility (µg/mL)
Give bare numbers, in µg/mL.

Q: Let me know recorded solubility for CC(C)(O)COc1cc(-c2ccc(N3CCC(O)(Cc4ccccn4)CC3)nc2)c2c(C#N)cnn2c1 [compound of Formula IV] , thanks.
Result: 7

====

Experiment: Solubility of the free base of the compound of Formula I in solvents and mixed solvent systems
Assay type: physicochemical
Settings: DCE, 25 °C, organic solvent or mixture, thermodynamic from solid; read-out: Solubility at 25° C.
readout_label: solubility (µg/mL)
One number for each entry, in µg/mL.

Q: Retrieve solubility measured for COc1ccc(CN2CCN(c3ccc(-c4cc(-c5cnn(C)c5)cn5ncc(C#N)c45)cn3)CC2)cn1 [freebase of the compound of Formula I] and print it.
Result: 4600

====

Assay: Solubility screening of the compound of Formula IV (freebase) in solvent mixtures
Type: physicochemical
Conditions: organic solvent or mixture; Ethanol, approximately 25° C.
readout_label: solubility (µg/mL)
Answers are plain numbers, in µg/mL.

Q: Look up solubility of CC(C)(O)COc1cc(-c2ccc(N3CCC(O)(Cc4ccccn4)CC3)nc2)c2c(C#N)cnn2c1 and report it.
Result: 5200

====

Test: Primary salt screen of the compound of Formula II: XRPD post-cycling and post-stability (40° C., 75% RH overnight)
Type: physicochemical
Conditions: compound of Formula II + the acid given as label; MeCN/water (20%); cycled RT/40° C. over 24 hours
readout_label: XRPD post-cycling

// known answers, use as guide
O=S(=O)(O)O | No solid
O=S(=O)(O)CCS(=O)(=O)O | No solid
CS(=O)(=O)O | No solid
O=C(O)C(=O)O | No solid

# per-item lookup of XRPD post-cycling; items listed below
1. Cc1ccc(S(=O)(=O)O)cc1
2. O=P(O)(O)O
3. O=C(O)/C=C\C(=O)O
4. CCS(=O)(=O)O
5. O=S(=O)(O)c1ccccc1

Result:
["No solid", "No solid", "No solid", "No solid", "No solid"]
